# System: SF-268 CNS
# procedure.details: NCI tumour cell line growth inhibition, 48 h
readout: TGI (µM)
Note: unit µM is implicit; provide only the numeric part.

Q: Return TGI measured with SF-268 CNS given this compound: CC1=C([Se]CC(OC(=O)[C@@H](CO)NC(=O)OC(C)(C)C)C(=O)NCCCCCC(=O)OCc2ccccc2)C(=O)c2ccccc2C1=O (stereo partly specified)
Result: 3.27

Q: Return TGI measured with SF-268 CNS given this compound: Cc1ccc(OCC2OC(n3cnc4c(Br)nc(Br)nc43)CC2Oc2ccc(C)cc2)cc1 (stereo unspecified)
Result: 25.4

Q: Return TGI measured with SF-268 CNS given this compound: `Cc1cc(Cl)cc(Cc2cc(Cl)cc(C)c2O)c1O`
Result: 16.8

---

What TGI was measured for each of the following?
# Test system: KM12 colon
# procedure.details: NCI tumour cell line growth inhibition, 48 h
Note: unit µM is implicit; provide only the numeric part.

Q: Query: TGI; subject: `Fc1ccc(Nc2nc3ccccc3c3occc23)cc1`
Result: 6.23

Q: Query: TGI; subject: CC1C(c2ccccc2O)c2cc3c(cc2OC1N1CCOCC1)OCO3 (stereo not drawn)
Result: 91.6

Q: Query: TGI; subject: `O=C(C/C=C/c1ccccc1)c1ccccc1`
Result: 25.6

Q: Query: TGI; subject: `c1ccc([P+](CCCCCC[P+](c2ccccc2)(c2ccccc2)c2ccccc2)(c2ccccc2)c2ccccc2)cc1`
Result: 63.2

---

# Tested on: ACHN renal
# procedure.details: NCI tumour cell line growth inhibition, 48 h
readout: TGI

Q: Query: TGI; subject: `CCC[CH2][Pb]([Cl])([CH2]CCC)[CH2]CCC`
Result: 0.0558 µM

Q: Query: TGI; subject: `COC1=CC(=O)C2=C(C[C@@]3(C)C(=C2)C(CO)=CC[C@H]3O)C1=O`
Result: 33.1 µM

Q: Query: TGI; subject: `COc1cc(C=O)cc(O)c1O`
Result: > 100 µM

Q: Query: TGI; subject: `O=C1/C(=C/c2ccc(Cl)cc2)CSC/C1=C\c1ccc(Cl)cc1`
Result: 12.6 µM

Q: Query: TGI; subject: `Cn1c2ccccc2c2c(=O)n(CCCC(=O)OC(=NC3CCCCC3)NC3CCCCC3)c3c(-c4ccccc4)nnn3c21`
Result: > 100 µM

Q: Query: TGI; subject: `O=C1O/C(=C\c2ccc(O)cc2)C(c2ccc(O)c(Cl)c2)=C1Cl`
Result: > 100 µM

Q: Query: TGI; subject: `C/C(=N\NC(=O)CC(=O)N(C(=O)c1ccc(Cl)cc1)c1ccc(C)cc1)c1ccccc1O`
Result: > 100 µM

Q: Query: TGI; subject: `CC(=O)/C(C=Nc1c(C)n(C)n(C)c1=O)=C(/O)c1ccccc1`
Result: > 50 µM

Q: Query: TGI; subject: `CCCCc1c2c(c(C)c3c1C(=O)OC3)Oc1ccccc1O2`
Result: > 100 µM

Q: Query: TGI; subject: CCCNC(=O)N1CC(CN2CCN(c3ccccc3)CC2)O/C1=N/C(=O)Nc1ccccc1 (stereo not given)
Result: > 100 µM

---

# Test system: SNB-75 CNS
# procedure.details: NCI tumour cell line growth inhibition, 48 h
What TGI was measured for each of the following?
Note: unit µM is implicit; provide only the numeric part.

Q: Return TGI measured with SNB-75 CNS given this compound: CCCCCCCCC/C=C1/CC(CO)(COC(=O)c2ccccc2)OC1=O (stereo unspecified)
Result: 22.1

Q: Return TGI measured with SNB-75 CNS given this compound: CC(=O)OCC1OC(n2nc(Cc3ccccc3)c(=S)[nH]c2=S)C(OC(C)=O)C(OC(C)=O)C1OC(C)=O (stereo unspecified)
Result: 39.8

Q: Return TGI measured with SNB-75 CNS given this compound: CC1=C([Se]CC(OC(=O)[C@@H](CO)NC(=O)OC(C)(C)C)C(=O)NCCCCCC(=O)OCc2ccccc2)C(=O)c2ccccc2C1=O (stereo partly specified)
Result: 2.55

Q: Return TGI measured with SNB-75 CNS given this compound: `Cc1cc2nc(N3C(=O)/C(=C/c4ccc(N(C)C)cc4)N=C3c3ccccc3)sc2cc1C`
Result: 56.8

---

What GI50 was measured for each of the following?
# System: NCI-H522 lung
# procedure.details: NCI tumour cell line growth inhibition, 48 h

Q: Query: GI50; subject: `Cc1nccc2c3ccc(OCc4cn(-c5ccc(Cl)cc5)nn4)cc3n(CC(C)C)c12`
Result: 4.17 µM

Q: Query: GI50; subject: COc1cccc2c1C(=O)c1c(O)c3c(c(O)c1C2=O)CC(O)(C(=O)CO)CC3OC1CC(N)C(O)C(C)O1 (centres undefined)
Result: 4.07 µg/mL

Q: Query: GI50; subject: `COc1cc(/C=C2\C[C@H]3[C@@H]4CC=C5C[C@@H](OC(C)=O)CC[C@]5(C)[C@H]4CC[C@]3(C)[C@H]2OC(C)=O)ccc1OCCN1CCCC1`
Result: 18.1 µM

Q: Query: GI50; subject: `CCCCCC[C@H](C)NC(=O)c1ccc(Nc2nc3ccccc3c3occc23)cc1`
Result: 2.5 µM

---

# System: OVCAR-5 ovarian
# procedure.details: NCI tumour cell line growth inhibition, 48 h
readout: TGI (µM)
Note: unit µM is implicit; provide only the numeric part.

Q: Return TGI measured with OVCAR-5 ovarian given this molecule: `CSc1ccc(C(=O)/C=C/c2ccccc2Cl)cc1`
Result: 31.6

Q: Return TGI measured with OVCAR-5 ovarian given this molecule: `Nc1ccc(Sc2c3ccccc3nc3ccccc23)cc1`
Result: 52

Q: Return TGI measured with OVCAR-5 ovarian given this molecule: `Cc1c(F)c(NC(=O)CN(C)C)c2c(=O)cc(-c3ccc(NC(=O)CN(C)C)c(F)c3)oc2c1F`
Result: 41.1

Q: Return TGI measured with OVCAR-5 ovarian given this molecule: `COC(=O)C1=C(CCC[C@H](C)O[Si](C)(C)C(C)(C)C)NC(=O)N2[C@@H](CCO)CC[C@H]12`
Result: 33.7

---

What TGI was measured for each of the following?
# Test system: MDA-MB-231 breast
# procedure.details: NCI tumour cell line growth inhibition, 48 h

Q: Query: TGI; subject: `COc1ccc(/C(=N\Nc2ccccn2)c2ccccn2)cc1`
Result: > 74.9 µM

Q: Query: TGI; subject: O=C1CC2SC(COCc3ccccc3)(CCN2Cc2ccccc2)C1 (stereo unspecified)
Result: > 100 µM

Q: Query: TGI; subject: `C/C(=N/N=C(N)N)c1ccc(NC(=O)Nc2ccc(/C(C)=N/N=C(N)N)cc2)cc1`
Result: 71.2 µM

Q: Query: TGI; subject: `Cn1c(=O)c(Cl)c(N=[N+]=[N-])c2ccccc21`
Result: > 100 µM

Q: Query: TGI; subject: `COc1cc2c(cc1C)NC(=O)/C2=C\c1c[nH]c2ccccc12`
Result: 21.5 µM

Q: Query: TGI; subject: `CC1(C)OC(=O)C(Cc2ccccc2)(Cc2ccccc2)C(=O)O1`
Result: > 100 µM

---

# System: SK-MEL-5 melanoma
# procedure.details: NCI tumour cell line growth inhibition, 48 h
What TGI was measured for each of the following?

Q: Query: TGI; subject: `[O-]c1c2c(nn1-c1ccc(Cl)cc1)c1ccccc1c[n+]2Cc1ccccc1`
Result: > 100 µM

Q: Query: TGI; subject: `[N-]=[N+]=CC(=O)CCC(=O)N(c1ccccc1)c1ccccc1`
Result: > 10 µM

Q: Query: TGI; subject: `Cc1c(F)c(NC(=O)CN(C)C)c2c(=O)cc(-c3ccc(NC(=O)CN(C)C)c(F)c3)oc2c1F`
Result: 30.6 µM

Q: Query: TGI; subject: `COc1cccc(/C=C\c2ccc(O)cc2)c1`
Result: > 51.7 µM

Q: Query: TGI; subject: COC1C(O)C(C)OC(OC2CCC3(C)C(CCC4C3C(O)CC3(C)C(C5=CC(=O)OC5)CCC43O)C2)C1O (stereo not drawn)
Result: 0.501 µM

Q: Query: TGI; subject: `O=C1c2ccccc2C(=O)c2c(NCCCN3CCOCC3)ccc(NCCCN3CCOCC3)c21`
Result: 6.79 µM

Q: Query: TGI; subject: CC(O)[C@@]1(c2ccccc2)CC2(CCN(C)CC2)O[C@H]1C (stereo partly drawn)
Result: > 100 µM

Q: Query: TGI; subject: `NC(=O)C(=CNC(=S)Nc1cccc(C(F)(F)F)c1)C(N)=O`
Result: > 100 µM

Q: Query: TGI; subject: CCOC1CC2OC(=O)C1C=C2C(=O)OC (stereo not drawn)
Result: > 100 µM

Q: Query: TGI; subject: `COc1ccc2c(c1)C(=O)c1c-2c(Nc2cccc(C(C)=O)c2)nc2ccccc12`
Result: 18.9 µM

Q: Query: TGI; subject: `S=C(N1CCN(c2ccccc2)CC1)N1CCN(c2ccccc2)CC1`
Result: > 100 µM

Q: Query: TGI; subject: `CC(C)[C@@H](C)[C@@]1(C)C[C@@H]1[C@@H](C)[C@H]1CC[C@@H]([C@@H]2CC=C3C[C@@H](O)CC[C@]3(C)C2=O)[C@]1(C)CCO`
Result: 26.4 µM

Q: Query: TGI; subject: `CCOC(=O)C(=O)NC12CC3CC(CC(C3)C1)C2`
Result: > 100 µM

Q: Query: TGI; subject: `O=C(O)Cc1cccc2c(=O)c3cccc([N+](=O)[O-])c3oc12`
Result: > 100 µM

Q: Query: TGI; subject: `CCN=C(C#N)NCC`
Result: > 100 µM

Q: Query: TGI; subject: Cc1ccc(N2C(N)=C(C#N)C(C#N)(C#N)C2c2ccccc2)cc1 (stereo not drawn)
Result: 20.9 µM

Q: Query: TGI; subject: `CN(C)c1ccc2nc(CC(O)(C(F)(F)F)C(F)(F)F)ccc2c1`
Result: > 10 µM

Q: Query: TGI; subject: COC(=O)C(/C(=N\NC(N)=S)C(=O)Nc1ccccc1[N+](=O)[O-])c1cnc2ccccc2n1 (stereo not drawn)
Result: > 100 µM

Source of measurements: PubChem BioAssay (NCI)
